Provenance of the data: patent US11414442B2

test: Solubility of ARF6 prodrugs in various vehicles (Table 4); type: physicochemical; settings: 20 mM Na citrate buffer, pH 3.1, aqueous buffer, kinetic from dmso stock; diluted from 10 mM solution in DMSO; read-out: Solubility (μM) 20 mM Na Citrate, pH 3.1
Counter-ions that a name gives are not always drawn.
Please provide measured solubility for the entries that follow.
Answers are plain numbers, in µM.

Use these answered entries as a reference point.
>  <COMPOUND>
NCCCC[C@H](N)C(=O)Oc1cc([N+](=O)[O-])ccc1-c1cc(=O)[nH]c2c(-c3ccc(Cl)cc3)c(Cc3ccccc3)nn12 [NAV-B, dihydrochloride]

>  <RESULT_UNIT>
µM

>  <solubility>
280

$$$$
>  <COMPOUND>
NCC(=O)Oc1cc([N+](=O)[O-])ccc1-c1cc(=O)[nH]c2c(-c3ccc(Cl)cc3)c(Cc3ccccc3)nn12.O=C(O)C(F)(F)F

>  <RESULT_UNIT>
µM

>  <solubility>
325

$$$$

Shift focus to the following entry.
Summary for this compound, C[C@H](N)C(=O)Oc1cc([N+](=O)[O-])ccc1-c1cc(=O)[nH]c2c(-c3ccc(Cl)cc3)c(Cc3ccccc3)nn12.O=C(O)C(F)(F)F : solubility is 160
